# Test details: probe aLefty1 binding on compound microarray – biochemical, small-molecule microarray, 635/667 nm fluorescence, primary screen (AID 1153);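 note: score merges spot fluorescence with signal-to-noise ratio from the scanned slide images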
# Measurement context: higher = more signal
Measurement label: composite z-score

See these solved cases before continuing.
Reported composite z-score for CC(=O)N1CC2(CC2)CC1c1ccccc1 (stereo unspecified) : what is it?
0.433

Now consider `CCOC(=O)C1=CC[C@@H](c2ccccc2F)N(S(=O)(=O)c2ccc(C)cc2)[C@H]1c1ccccc1` .
-0.0544

Now consider COc1cc2c(cc1O)C(C1CC1)N(Cc1cccc(OC(F)(F)F)c1)CC2 (stereo unspecified) .
-0.105

Now consider `CCCC#C[Si](O[C@H](CC)c1cn([C@H](C)c2ccccc2)nn1)(C(C)C)C(C)C` .
0.28

Now consider O=C1OCCC/C=C\[C@H]2OC34C=CCN(c5ccc6ccccc6c5)C(=O)[C@H]3N(CCO)C(=O)[C@@H]4C12 (stereo partly specified) .
0.0313

--- query ---
Reported composite z-score for Cc1cc(C)c(C(O)C2C=CC3C(=O)N(c4ccccc4)C(=O)C3N2Nc2ccccc2F)c(C)c1 (stereo unspecified) : what is it?
-0.0111

Source: PubChem BioAssay
